- Experimental details: RP-HPLC retention time (read by the paper as polarity)
- Assay type: physicochemical
- Measurement context: incubation of BE 1-31; Jupiter C4 300 A column, water/acetonitrile gradient with 0.1% formic acid, 200 µl/min, MS TIC detection
Where no end group is shown, it is not given here.
Think of 20 min as a floor: if RT stands on it or above, it is t; beneath it, f.

Substance	Category
YGGFMTSEKSQTPLVTL [BE 1–17]	t
BE 10-18: beta-endorphin fragment, residues 10-18 (SQTPLVTLF; Beta-endorphin; UniProt P01189 246-254, looked up, fragment)	t
BE 19-30: beta-endorphin fragment, residues 19-30 (KNAIIKNAYKKG; Beta-endorphin; UniProt P01189 255-266, looked up, fragment)	f
YGGFMTSEKSQTPLVTLFKN [BE 1–20]	t
BE 10-24: beta-endorphin fragment, residues 10-24 (SQTPLVTLFKNAIIK; Beta-endorphin; UniProt P01189 246-260, looked up, fragment)	t

[ask] Does the substance BE 20-27: beta-endorphin intermediate fragment, residues 20-27 (NAIIKNAY; Beta-endorphin; UniProt P01189 256-263, looked up, fragment) have recorded RT that is 20 min or more?
[reply] f

###

- Target of assay: delta-opioid receptors (DOR)
- Construct: expressed in transfected cells
- Type: cell-based
- Measurement context: read-out: IC50 for the inhibition of forskolin induced cAMP in HEK-DOP cells
Where no end group is shown, it is not given here.
Values of IC50 strictly less than 20 nM map to criterion met, and values of at least 20 nM map to criterion not met.

Illustrative cases are given below, each with its answer.
In [3]: df
Out[3]:
                             query_sequence               target_of_assay           category
0                     YGGFMTSEKSQ [BE 1–11]  delta-opioid receptors (DOR)      criterion met
1            YGGFMTSEKSQTPLVTLFKN [BE 1–20]  delta-opioid receptors (DOR)  criterion not met
2               YGGFMTSEKSQTPLVTL [BE 1–17]  delta-opioid receptors (DOR)  criterion not met
3  YGGFMTSEKSQTPLVTLFKNAIIKNVHKKGQ [BE 1–31, Beta-endorphin]  delta-opioid receptors (DOR)  criterion not met

From here, focus on the item given below.
[ask] For this sequence, is IC50 lower than 20 nM? YGGFMTSEKSQTP [BE 1–13]
[reply] criterion not met

###

# Lookup of reported MRT keyed by entry
- Experimental details: Biotransformation in homogenised inflamed tissue at pH 5.5 (LC/MS, mean residence time)
- Measurement context: incubation of BE 1-13 (115 µM) in rat inflamed tissue homogenate, MES pH 5.5, 37°C, 120 min; AUMC/AUC of LC/MS peak intensity
Where no end group is shown, it is not given here.
API note: the answer field is a bare number with no unit suffix.

Consider the following illustrative entries.
Substance	MRT
YGGFMTSEKSQ [BE 1–11]	10.5
YGGFMTSEKSQTP [BE 1–13]	8.3
BE 2-9: des-tyrosine beta-endorphin fragment, residues 2-9 (GGFMTSEK; Beta-endorphin; UniProt P01189 238-245, looked up, fragment)	19.8
BE 3-13: beta-endorphin fragment, residues 3-13 (GFMTSEKSQTP; Beta-endorphin; UniProt P01189 239-249, looked up, fragment)	16.1
BE 4-13: beta-endorphin fragment, residues 4-13 (FMTSEKSQTP; Beta-endorphin; UniProt P01189 240-249, looked up, fragment)	18
BE 2-11: des-tyrosine beta-endorphin fragment, residues 2-11 (GGFMTSEKSQ; Beta-endorphin; UniProt P01189 238-247, looked up, fragment)	20.2

[ask] Any idea what its MRT is? The substance is BE 2-12: beta-endorphin fragment, residues 2-12 (GGFMTSEKSQT; Beta-endorphin; UniProt P01189 238-248, looked up, fragment)
[reply] 18.1

[ask] Any idea what its MRT is? The substance is BE 2-13: des-tyrosine beta-endorphin fragment, residues 2-13 (GGFMTSEKSQTP; Beta-endorphin; UniProt P01189 238-249, looked up, fragment)
[reply] 16.4
